system: U2OS; assay: Multiplex assay against U2OS; type: toxicity, cell-based; conditions: human, 48 h, 1 µM, compound concentration 1 uM, replicate 1
Population Healthy Nuclei (%) under 70% gets Fulfilled, anything at or over 70% gets Not fulfilled.

Known results for compounds:
CN1CCN2c3ncccc3Cc3ccccc3C2C1 (centres undefined): Not fulfilled
Cl.Clc1ccc2nsnc2c1NC1=NCCN1 [TIZANIDINE HYDROCHLORIDE]: Not fulfilled
O=C(NCCO)c1cccc(-c2cc(Nc3ccc(OC(F)(F)F)cc3)ncn2)c1: Not fulfilled
Cc1ccc(C(C)(O)c2nc3ccccc3s2)c(C)c1 (centres undefined): Not fulfilled
O=C(NCC(=O)N1CC[C@H](N[C@H]2CC[C@@](O)(c3ccc(-c4ncccn4)cn3)CC2)C1)c1cccc(C(F)(F)F)c1: Not fulfilled

Now for a further compound.
### Prompt Take the compound "COc1cc(NC(=O)CCN2CCC(OC(=O)Nc3ccccc3-c3ccccc3)CC2)c(Cl)cc1CNC[C@H](O)c1ccc(O)c2[nH]c(=O)ccc12" and say whether its Population Healthy Nuclei (%) is less than 70%.
### Response Fulfilled

---

system: Fibroblast; test: Multiplex assay against human fibroblast; assay type: toxicity, cell-based; details: 12 h, 10 µM, compound concentration 10 uM, replicate 1
Binary classification by Population Fragmented Nuclei (%), with 20% as an inclusive lower bound for label 1; all other cases are label 0.

Below are worked cases with known answers.
Oc1c(CN2CCN(c3ccccn3)CC2)cc(Cl)c2cccnc12: label 0
N[C@@]1(C(=O)O)CO[C@H]2[C@H](C(=O)O)[C@H]21: label 0
O=C(O)Cc1ccccc1Nc1c(Cl)cccc1Cl: label 0
O=C1COc2nccc(-c3ccccc3F)c2CN1Cc1cc(C(F)(F)F)cc(C(F)(F)F)c1: label 0
O=S(=O)(c1ccccc1)c1cnc2c(N3CCNCC3)cccc2c1 [INTEPIRDINE]: label 1
CN1CCN(c2nc3cc(C(F)(F)F)ccc3n3cccc23)CC1.O=C(O)/C=C\C(=O)O.O=C(O)/C=C\C(=O)O: label 1
Cc1nc2ccc(Oc3ccc(F)cc3)cc2c(=O)n1C[C@H]1CCCN(C(C)C)C1.Cl: label 0

Please examine the following record next.
### Prompt Entry "O=C(NCC(=O)N1CC[C@H](N[C@H]2CC[C@@](O)(c3ccc(-c4ncccn4)cn3)CC2)C1)c1cccc(C(F)(F)F)c1" : is its Population Fragmented Nuclei (%) no less than 20%?
### Response label 0

---

system: Fibroblast; assay: Multiplex assay against human fibroblast; assay type: toxicity, cell-based; conditions: 12 h, 1 µM, compound concentration 1 uM, replicate 2
Response field label: string, one of Y (Population Tubulin-Different-Phenotype (%) strictly below 40%) or N.

# example entries with known answers
COc1ccc2c(c1)C(C(=O)N(Cc1ccc(N(C)C)cc1)c1ccc(C(C)C)cc1)CCC2.Cl (stereo not drawn): N
COc1cc(C(=O)N(CCCc2ccccc2)Cc2ccc(CC(=O)O)cc2)cc(OC)c1C: Y
N#Cc1c(N)nc(SCc2csc(-c3ccc(Cl)cc3)n2)c(C#N)c1-c1ccc(OCCO)cc1: N
CC1(COc2ccc3c(c2)ncn3-c2ccc3cccc(N4CCC(N)CC4)c3n2)COC1: N
COc1c(C)cc(NC(=O)c2nn(Cc3ccc(F)cc3)c3c2CN(C(=O)c2ccc[nH]2)C[C@]3(C)C(N)=O)cc1C: N
Cc1ccc(F)cc1C(=O)Nc1ccc(C(=O)N2Cc3cccn3Cc3ccccc32)c(Cl)c1: Y
O=C(O)c1cc2ccccc2c(Cc2c(O)c(C(=O)O)cc3ccccc23)c1O: Y

Turning now to a further compound:
### Prompt Is Population Tubulin-Different-Phenotype (%) of "Cc1nc2ccc(Oc3ccc(F)cc3)cc2c(=O)n1C[C@H]1CCCN(C(C)C)C1.Cl" strictly below 40%?
### Response N
